- MEASURED ON: human α-synuclein (Homo sapiens)
- Construct: made in house; host or cells: E. coli
- ASSAY NOTES: In vitro Thioflavin T assay of α-synuclein aggregation
- Type: biochemical
- COND: compounds at 1 μM; 50 μM α-synuclein; ThT fluorescence at 40 hours; read-out: Inhibition of Aggregation αSyn
For each entry below, report its inhibition at 1 µM value.
Show the value, then the unit it is measured in.

Param readout= inhibition at 1 µM; system= human α-synuclein (Homo sapiens); entry= O=C(/C=C/c1ccc(O)c(O)c1)O[C@H](Cc1ccc(O)c(O)c1)C(=O)O [rosmarinic acid] ; returns value.
99%

Field: inhibition at 1 µM (human α-synuclein (Homo sapiens)). Entry: O=c1c(-c2ccc(O)cc2)coc2cc(O)cc(O)c12 [genistein]
40%

Fill in the recorded inhibition at 1 µM for this compound, with human α-synuclein (Homo sapiens) as test system: O=c1c(O)c(-c2ccc(O)c(O)c2)oc2cc(O)cc(O)c12 [quercetin]
99%

What reported inhibition at 1 µM corresponds to Oc1ccc(/C=C/c2cc(O)cc(O)c2)cc1 [resveratrol, (E)-5-(4-hydroxystyryl)benzene-1,3-diol] on human α-synuclein (Homo sapiens)?
86%

Entry O=c1cc(-c2ccc(O)cc2)oc2cc(O)cc(O)c12 [apigenin] , system human α-synuclein (Homo sapiens): what inhibition at 1 µM was measured?
56%
